B1: library; numbered along this chain (parent)
chain: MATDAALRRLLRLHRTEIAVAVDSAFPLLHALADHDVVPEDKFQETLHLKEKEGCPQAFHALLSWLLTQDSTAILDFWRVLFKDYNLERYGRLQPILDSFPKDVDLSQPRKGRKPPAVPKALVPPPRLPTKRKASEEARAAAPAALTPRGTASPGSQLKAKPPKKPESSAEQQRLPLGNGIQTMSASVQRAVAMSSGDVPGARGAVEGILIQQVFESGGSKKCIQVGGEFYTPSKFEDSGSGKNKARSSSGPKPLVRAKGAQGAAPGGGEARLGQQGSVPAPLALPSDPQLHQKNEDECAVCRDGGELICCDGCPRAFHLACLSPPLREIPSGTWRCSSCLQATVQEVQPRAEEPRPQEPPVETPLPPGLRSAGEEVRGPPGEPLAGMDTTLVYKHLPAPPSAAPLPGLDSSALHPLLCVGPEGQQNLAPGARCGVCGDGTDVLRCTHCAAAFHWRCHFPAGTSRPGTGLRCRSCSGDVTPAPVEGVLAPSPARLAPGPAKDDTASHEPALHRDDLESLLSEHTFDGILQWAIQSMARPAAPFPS

# Variants of: B1
# Measurement Notes: AIRE transcriptional activation functional score (insulin promoter-GFP; nonsense median 0, synonymous median 1) (normalised score); higher = higher AIRE activity (more reporter activation)
# Experimental Conditions: with insulin promoter-GFP reporter in HEK293
Quantity Kind: AIRE transcriptional activation functional score

For S339V , what is its reported AIRE transcriptional activation functional score?
0.99
